- Target system: ligand binding domain of thyroid hormone receptor alpha (Homo sapiens (Human))
- Sequence (P10827 other isoform, or with tags, fused parts or gaps del 1-162, other chains not shown): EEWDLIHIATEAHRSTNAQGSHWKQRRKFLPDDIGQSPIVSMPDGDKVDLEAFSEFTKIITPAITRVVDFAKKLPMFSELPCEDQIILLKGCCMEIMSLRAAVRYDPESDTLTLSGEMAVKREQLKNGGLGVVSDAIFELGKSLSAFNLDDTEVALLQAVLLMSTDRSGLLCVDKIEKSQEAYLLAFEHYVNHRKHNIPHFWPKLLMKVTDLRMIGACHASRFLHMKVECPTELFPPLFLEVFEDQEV
- Test protocol: Thyroid hormone receptor TR-FRET binding assay (TRα LBD)
- Test conditions: TRα LBD 4 nM
Observation type: EC50 (µM)

- Molecule: "Cc1nn(-c2cc(Cl)c(Oc3cc(CC4CCCC4)c(=O)[nH]n3)c(Cl)c2)c(=O)[nH]c1=O"
  EC50, µM: 1.17
- Molecule: "N#Cc1nn(-c2cc(Cl)c(Oc3cc(C4CCCCC4)c(=O)[nH]n3)c(Cl)c2)c(=O)[nH]c1=O"
  EC50, µM: 36.7
- Molecule: "Cc1nn(-c2cc(Br)c(Oc3cc(C4CCC4)c(=O)[nH]n3)c(Br)c2)c(=O)[nH]c1=O"
  EC50, µM: 1.35

(a) N#Cc1nn(-c2cc(Cl)c(Oc3cc(Cc4ccc5[nH]ncc5c4)c(=O)[nH]n3)c(Cl)c2)c(=O)[nH]c1=O
(b) Cc1nn(-c2cc(Cl)c(Oc3cc([C@H](C)c4ccccc4)c(=O)[nH]n3)c(Cl)c2)c(=O)[nH]c1=O (single isomer, unassigned)
(c) Cc1nn(-c2cc(Cl)c(Oc3cc(CC4CCC(O)CC4)c(=O)[nH]n3)c(Cl)c2)c(=O)[nH]c1=O (stereo not shown)
I would appreciate it if you could sort these 3 molecules by EC50, starting from the smallest number. Give the labels in the order requested.
a, c, b
